Attribution: ChEMBL document CHEMBL2069175

- TEST_PROTOCOL: Cytotoxicity against human HDF at 100 uM
- MEASUREMENT_CONDITIONS: HDF cells, read-out: INH
EXPERIMENTAL_ENDPOINT: cytotoxicity at 100 µM (%)
Quick note: give the figure in %, leave out the unit.

// query cytotoxicity at 100 µM value for entry CCCCNC(=O)C[C@H](O)[C@H](CC(C)C)NC(=O)[C@@H](NC(=O)c1ccc(Oc2ccc(C(=O)N[C@@H](CC(C)C)C(=O)N[C@@H](CCCCN)C(=O)NCCCC(C)Nc3cc(OC)cc4cccnc34)cc2)cc1)[C@@H](C)CC (stereo partly specified)
50

----------
Listed here: items and their measured Ki.
- SYSTEM: Plasmepsin II (Plasmodium falciparum)
- Sequence (P46925 whole entry): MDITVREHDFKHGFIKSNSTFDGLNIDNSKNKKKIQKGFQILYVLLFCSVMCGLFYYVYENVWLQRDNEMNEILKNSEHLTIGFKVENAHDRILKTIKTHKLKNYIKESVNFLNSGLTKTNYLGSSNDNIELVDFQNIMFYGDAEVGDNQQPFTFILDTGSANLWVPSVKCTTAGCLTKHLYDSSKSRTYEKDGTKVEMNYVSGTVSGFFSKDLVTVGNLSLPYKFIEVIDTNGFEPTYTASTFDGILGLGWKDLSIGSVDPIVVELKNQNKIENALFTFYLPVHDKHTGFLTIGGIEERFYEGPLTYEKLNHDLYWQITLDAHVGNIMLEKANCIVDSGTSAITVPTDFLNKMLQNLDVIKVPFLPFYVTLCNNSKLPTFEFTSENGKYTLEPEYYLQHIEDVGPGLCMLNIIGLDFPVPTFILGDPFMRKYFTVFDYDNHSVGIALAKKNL
- TEST_PROTOCOL: Inhibition of Plasmodium falciparum PLM2 using Lys-Glu-Phe-Val-Phe-NPhe-Ala-Leu-Lys as substrate by spectrophotometry
- MEASUREMENT_CONDITIONS: read-out: Ki
Quick note: give the figure in nM, leave out the unit.

// query Ki value for entry "CCCCNC(=O)C[C@H](O)[C@H](CC(C)C)NC(=O)[C@@H](NC(=O)c1ccc(Oc2ccc(C(=O)NCCCNc3ccnc4cc(Cl)ccc34)cc2)cc1)[C@@H](C)CC"
2.3

Next: "CCCCNC(=O)C[C@H](O)[C@H](CC(C)C)NC(=O)[C@@H](NC(=O)c1ccc(Oc2ccc(C(=O)OCc3ccccc3)cc2)cc1)[C@@H](C)CC"
1.9

Next: CCCCNC(=O)C[C@H](O)[C@H](CC(C)C)NC(=O)[C@@H](NC(=O)c1ccc(Oc2ccc(C(=O)N[C@@H](CC(C)C)C(=O)N[C@@H](CCCCN)C(=O)NCCCC(C)Nc3cc(OC)cc4cccnc34)cc2)cc1)[C@@H](C)CC (stereo partly drawn)
0.4

----------
Listed here: items and their measured pIC50.
- Tested on: Plasmodium falciparum
- TEST_PROTOCOL: microbe, parasite or virus in culture
- MEASUREMENT_CONDITIONS: D10, 72 h
- Description: Antiplasmodial activity against chloroquine-sensitive Plasmodium falciparum D10 after 72 hrs by parasite lactate dehydrogenase assay
The read-out pIC50 is expressed as -log10 of concentration in moles per litre.

Example compounds with recorded pIC50:
// query pIC50 value for entry "CCCCNC(=O)C[C@H](O)[C@H](CC(C)C)NC(=O)[C@@H](NC(=O)c1ccc(Oc2ccc(C(=O)NCCCNc3ccnc4cc(Cl)ccc34)cc2)cc1)[C@@H](C)CC"
6.75

Next: "CCCCNC(=O)C[C@H](O)[C@H](CC(C)C)NC(=O)[C@@H](NC(=O)c1ccc(Oc2ccc(C(=O)OCc3ccccc3)cc2)cc1)[C@@H](C)CC"
5.41

Next: "CC(C)C[C@H](NC(=O)OCc1ccccc1)C(=O)N[C@@H](C)C(=O)NCCCNc1ccnc2cc(Cl)ccc12"
6.71

Next: "CCCCNC(=O)C[C@H](O)[C@H](CC(C)C)NC(=O)[C@@H](NC(=O)c1ccc(Oc2ccc(C(=O)N[C@@H](CC(C)C)C(=O)N[C@@H](C)C(=O)NCCCNc3ccnc4ccccc34)cc2)cc1)[C@@H](C)CC"
6.79

Next: CCCCNC(=O)C[C@H](O)[C@H](CC(C)C)NC(=O)[C@@H](NC(=O)c1ccc(Oc2ccc(C(=O)N[C@@H](CC(C)C)C(=O)N[C@@H](CCCCN)C(=O)NCCCC(C)Nc3cc(OC)cc4cccnc34)cc2)cc1)[C@@H](C)CC (some centres not stated)
6.40

Now for a further compound.
// query pIC50 value for entry "CCCCNC(=O)C[C@H](O)[C@H](CC(C)C)NC(=O)[C@@H](NC(=O)c1ccc(Oc2ccc(C(=O)N[C@@H](C)C(=O)NCCCNc3ccnc4cc(Cl)ccc34)cc2)cc1)[C@@H](C)CC"
6.94
